target-or-system: T1, CD22 (UniProtKB-P20273) on CD22(+) cells (human, UniProt P20273 20-847)
T1 construct: Endogenous CD22 on the NALM6 and Raji cell lines; also called SIGLEC-2; BL-CAM
T1 sequence: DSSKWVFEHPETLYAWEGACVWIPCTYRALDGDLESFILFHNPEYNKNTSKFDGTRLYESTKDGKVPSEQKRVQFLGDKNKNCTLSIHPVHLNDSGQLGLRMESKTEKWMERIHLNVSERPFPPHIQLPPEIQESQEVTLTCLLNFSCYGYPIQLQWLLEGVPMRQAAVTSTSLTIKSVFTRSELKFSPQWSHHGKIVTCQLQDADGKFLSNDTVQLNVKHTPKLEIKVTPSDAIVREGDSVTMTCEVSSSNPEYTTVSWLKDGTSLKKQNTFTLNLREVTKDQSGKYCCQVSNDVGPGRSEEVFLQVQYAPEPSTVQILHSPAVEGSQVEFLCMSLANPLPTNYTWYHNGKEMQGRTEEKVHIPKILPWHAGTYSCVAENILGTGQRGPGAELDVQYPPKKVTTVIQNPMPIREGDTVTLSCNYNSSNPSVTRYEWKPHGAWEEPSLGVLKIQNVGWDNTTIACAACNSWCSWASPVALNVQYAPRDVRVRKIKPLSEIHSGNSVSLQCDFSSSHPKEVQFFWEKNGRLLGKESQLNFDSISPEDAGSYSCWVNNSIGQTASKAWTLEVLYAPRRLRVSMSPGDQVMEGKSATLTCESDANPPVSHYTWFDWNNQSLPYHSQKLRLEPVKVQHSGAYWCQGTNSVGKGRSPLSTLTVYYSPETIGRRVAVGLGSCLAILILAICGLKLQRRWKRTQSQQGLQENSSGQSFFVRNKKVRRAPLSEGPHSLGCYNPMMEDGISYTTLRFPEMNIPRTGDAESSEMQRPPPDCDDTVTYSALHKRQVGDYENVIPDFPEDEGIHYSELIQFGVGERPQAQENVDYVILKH
assay-notes: flow cytometry on CD22(+) NALM6 cells
outcome-measure: MFI (FACS NALM6)
Please state the value as a number alone, without comment.

Here are 2 binders together with their reported answers.
humanized LL2 L1 + H11 (antibody, V domains shown, Human IgG1 frameworks; also called H11L1; VL1-VH11) VH: QVQLVQSGAEVKKPGASVKMSCKASGYTFTSYWLHWVRQAPGQRLEWMGYINPRNDYTEYNQNFKDRATITADTSASTAYMELSSLRSEDTAVYYCARRDITTFYWGQGTTLTVSS VL: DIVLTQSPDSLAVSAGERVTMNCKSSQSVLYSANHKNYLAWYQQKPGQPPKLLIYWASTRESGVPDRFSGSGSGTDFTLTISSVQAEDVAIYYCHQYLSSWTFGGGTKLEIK: 33.6
humanized LL2 L1 + H4 (antibody, V domains shown, Human IgG1 frameworks; also called H4L1) VH: QVQLQQSGAEVKKPGASVKMSCKASGYTFTSYWLHWIRQAPGQRLEWMGYINPRNDYTEYNQKFQGRATITADKSASTAYMELSSLRSEDTAVYYCARRDITTFYWGQGTTLTVSS VL: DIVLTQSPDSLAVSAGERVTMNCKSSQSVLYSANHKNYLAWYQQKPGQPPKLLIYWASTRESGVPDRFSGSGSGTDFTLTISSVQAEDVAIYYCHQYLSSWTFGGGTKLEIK: 33.6

# next binder below
Sample humanized LL2 L2 + H8 (antibody, V domains shown, Human IgG1 frameworks) VH: QVQLVESGAEVKKPGASVKVSCKASGYTFTSYWLHWIRQAPGQRLEWMGYINPRNDYTEYNQNFKDRVTITRDTSASTAYMELSSLRSEDTAVYYCARRDITTFYWGQGTTLTVSS VL: DIVLTQSPDSLAVSLGERVTMNCKSSQSVLYSANHKNYLAWYQQKPGQSPKLLIYWASTRESGVPDRFSGSGSGTDFTLTISSVQAEDVAIYYCHQYLSSWTFGGGTKLEIK — what was its MFI (FACS NALM6)?
26.7
